Measured protein stability index, listed per entry for reference.
experiment: protein stability index of a GFP-peptide fusion (yeast GPS) (PSI 1-4); higher = more stable; sorted into four equal gates, so the index is relative within each strain; details: san1∆
metric: protein stability index

INSERT INTO results (sequence_text, metric, observed_measurement) VALUES
  ('SFILSSLEDPQVRKKQI [YDL116W/NUP84]', 'protein stability index', 2.44),
  ('EMNLHVPQTEEARAEAI [RPO31]', 'protein stability index', 3.05),
  ('LNNTHVISSGPLAAGNF [RPC53]', 'protein stability index', 2.69),
  ('VNQEFIFEAISLSDELN [YJL039C/NUP192]', 'protein stability index', 2.63),
  ('AKLESLLENSVDKNFDK [MTW1]', 'protein stability index', 3.34),
  ('FPWLNAIKYRPTSVKLL [POP3]', 'protein stability index', 2.26),
  ('AAPAAAAAEIADEPVKA [FAS2]', 'protein stability index', 2.56),
  ('LKSQMDTSKALLNVSVN [SKI6]', 'protein stability index', 3.23),
  ('KAKAQAQAQAQAQAQVY [PGD1]', 'protein stability index', 3.04),
  ('KESDDPSIPLVIIRRLK [POP1]', 'protein stability index', 3.06),
  ('KKFATVPTGGASSAAAG [RPP2B]', 'protein stability index', 2.89),
  ('EWNGKSFQKKSNDKVVE [ISW2]', 'protein stability index', 3.01),
  ('GEYSVKLLKGATLYIPK [FAS2]', 'protein stability index', 2.9),
  ('VPPILIILPLDNATLTE [SSN2]', 'protein stability index', 2.58);

This collection of values is drawn from the supplement of paper PMC9732359.
